B1: Lysine-specific demethylase 5C, residues 319 to 373; numbered along this chain, P41229 (parent)
chain: AQFIESYVCRMCSRGDEDDKLLLCDGCDDNYHIFCLLPPLPEIPKGVWRCPKCVM

Variants of: B1
testDetails: abundance fitness (aPCA) (normalised: wild type 0, dead -1); higher = more abundant; growth selection in yeast, the domain comes from the species named
runConditions: Homo sapiens
Reported abundance fitness is given for each of the following variants.
measuredMetric: abundance fitness

alteration | measuredMetric | testValue
D28P | abundance fitness | 0.259
G15D | abundance fitness | -0.058
S13Y | abundance fitness | -0.149
C9S | abundance fitness | -0.82
G15T | abundance fitness | 0.029
N30H | abundance fitness | -0.176
D16I | abundance fitness | 0.089
L21Y | abundance fitness | -0.338
Y7V | abundance fitness | -0.121
C12P | abundance fitness | -0.52
C24Y | abundance fitness | -0.812
D28S | abundance fitness | 0.148
Y7F | abundance fitness | -0.14
Y7L | abundance fitness | -0.057
L22P | abundance fitness | -0.897
G15W | abundance fitness | -0.169
V8C | abundance fitness | -0.258
C27G | abundance fitness | -0.825
I4H | abundance fitness | -0.111
D25G | abundance fitness | -0.081
E5T | abundance fitness | -0.078
L22K | abundance fitness | -0.332
L23C | abundance fitness | -0.122
D16K | abundance fitness | -0.265
F34P | abundance fitness | -0.291
L22S | abundance fitness | -0.474
G26V | abundance fitness | -0.217
D19Y | abundance fitness | -0.335
Y31D | abundance fitness | -0.776
D28N | abundance fitness | 0.046
N30F | abundance fitness | -0.077
C12W | abundance fitness | -0.853
M11P | abundance fitness | -0.669
L22C | abundance fitness | -0.052
G26Y | abundance fitness | -0.341
F3M | abundance fitness | 0.095
D25N | abundance fitness | -0.293
S6T | abundance fitness | 0.148
L22R | abundance fitness | -0.169
L23P | abundance fitness | -0.017
I4F | abundance fitness | -0.098
D18M | abundance fitness | 0.107
V8E | abundance fitness | -0.266
A1L | abundance fitness | -0.331
Q2H | abundance fitness | -0.187
S6N | abundance fitness | 0.183
D19R | abundance fitness | -0.03
N30K | abundance fitness | 0.098
L21A | abundance fitness | -0.426
F34H | abundance fitness | -0.135
C35G | abundance fitness | -0.9
C12H | abundance fitness | -0.825
C27N | abundance fitness | -0.806
A1V | abundance fitness | -0.297
D28R | abundance fitness | 0.225
Y31T | abundance fitness | -0.678
N30I | abundance fitness | 0.219
I4R | abundance fitness | -0.3
F3Q | abundance fitness | -0.201
D28C | abundance fitness | -0.359
Q2F | abundance fitness | -0.531
C27I | abundance fitness | -0.923
D25L | abundance fitness | -0.381
D16E | abundance fitness | -0.072
D25P | abundance fitness | -0.355
M11E | abundance fitness | 0.171
Y7A | abundance fitness | 0.18
L23R | abundance fitness | 0.166
D19V | abundance fitness | -0.102
S6Y | abundance fitness | -0.1
C27D | abundance fitness | -0.646
L23M | abundance fitness | 0.235
V8I | abundance fitness | -0.241
D18W | abundance fitness | 0.035
L22V | abundance fitness | -0.163
K20A | abundance fitness | -0.065
F34Q | abundance fitness | -0.053
S6V | abundance fitness | -0.377
G15C | abundance fitness | 0.167
M11W | abundance fitness | -0.18
G15E | abundance fitness | 0.049
D19E | abundance fitness | -0.091
N30D | abundance fitness | -0.774
I4T | abundance fitness | 0.201
D19W | abundance fitness | -0.146
S6W | abundance fitness | -0.414
F34S | abundance fitness | -0.029
D29R | abundance fitness | 0.004
K20W | abundance fitness | -0.317
C27H | abundance fitness | -0.905
S6R | abundance fitness | 0.001
